Target: KRas G12D (Homo sapiens, UniProt P01116, G12D);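 note: TR-FRET displacement binding assay on KRas, read after a one-hour incubation at room temperature, IC50 fitted from percent-of-control values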
Sequence (P01116 1-169 isoform P01116-2 G12D): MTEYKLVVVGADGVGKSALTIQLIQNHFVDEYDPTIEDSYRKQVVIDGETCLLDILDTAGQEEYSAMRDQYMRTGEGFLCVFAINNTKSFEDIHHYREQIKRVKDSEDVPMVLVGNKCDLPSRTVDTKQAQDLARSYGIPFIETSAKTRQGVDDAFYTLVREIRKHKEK
Assay: biochemical
pIC50: −log10 of the molar value.
measurement-name: pIC50

INSERT INTO results (molecule, measurement_name, test_value) VALUES
  ('N#Cc1cccc2cccc(-c3ncc4c(N5CCCC6(CC(=O)N6)C5)nc(OCC56CCCN5CCC6)nc4c3F)c12 (stereo not shown) [Example 451]', 'pIC50', 5.59);

a = O=C1CC2(CCCN(c3nc(OC[C@@]45CCCN4C[C@H](F)C5)nc4c(F)c(-c5cc(O)cc6ccc(F)c(F)c56)ncc34)C2)N1 (stereo partly shown) [Example 452]
b = NS(=O)(=O)CC1CCCN(c2nc(OCC34CCCN3CCC4)nc3c(F)c(-c4cccc5cccc(C(F)F)c45)ncc23)C1 (stereo not shown) [Example 463]
c = O=C1NCC12CCCN(c1nc(OCC34CCCN3CCC4)nc3c(F)c(-c4cccc5cccc(F)c45)ncc13)C2 (stereo not shown) [Example 98]
IN: # rank by pIC50, ascending (min first) Provide your answer as the labels ordered per the instruction.
OUT: b, c, a
(b: 5.19, c: 5.72, a: 8.40)

====

Molecular target: KRas G12C (Homo sapiens, UniProt P01116, G12C)
Sequence (P01116 1-169 isoform P01116-2 G12C): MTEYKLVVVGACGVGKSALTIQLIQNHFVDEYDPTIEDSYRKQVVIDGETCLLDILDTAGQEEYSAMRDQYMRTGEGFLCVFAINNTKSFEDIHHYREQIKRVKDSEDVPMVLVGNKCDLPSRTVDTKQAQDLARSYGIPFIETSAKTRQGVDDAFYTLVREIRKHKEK
Assay: biochemical
pIC50: −log10 of the molar value.
measurement-name: pIC50

INSERT INTO measurements (compound, experimental_target, measurement_name, test_value) VALUES
  ('CC1(O)CCCN(c2nc(OCC3(CN4CCCC4)CC3)nc3c(F)c(-c4cccc5cccc(F)c45)ncc23)C1 (stereo not shown)', 'KRas G12C (Homo sapiens, UniProt P01116, G12C)', 'pIC50', 5.40),
  ('Fc1c(-c2cccc3cccc(Cl)c23)ncc2c(NCCCOC(F)F)nc(OCC34CCCN3CCC4)nc12', 'KRas G12C (Homo sapiens, UniProt P01116, G12C)', 'pIC50', 5.62),
  ('C#Cc1cccc2cccc(-c3ncc4c(N5C[C@@H]6C(=O)NC(=O)[C@@H]6C5)nc(OCC56CCCN5CCC6)nc4c3F)c12', 'KRas G12C (Homo sapiens, UniProt P01116, G12C)', 'pIC50', 7.12),
  ('CCc1c(F)ccc2cc(O)cc(-c3ncc4c(N5CCC[C@@](C)(O)C5)nc(C(=O)NC(C)CN(C)C)nc4c3F)c12 (stereo partly shown)', 'KRas G12C (Homo sapiens, UniProt P01116, G12C)', 'pIC50', 6.67),
  ('O=S1(=O)CCCN1C1CCCN(c2nc(OCC34CCCN3CCC4)nc3c(F)c(-c4cccc5cccc(F)c45)ncc23)C1 (stereo not shown)', 'KRas G12C (Homo sapiens, UniProt P01116, G12C)', 'pIC50', 5.79),
  ('O=C1NC(=O)C2CN(c3nc(OCC45CCCN4CCC5)nc4c(F)c(-c5cccc6cccc(F)c56)ncc34)CC12 (stereo not shown)', 'KRas G12C (Homo sapiens, UniProt P01116, G12C)', 'pIC50', 5.99);

I = NS(=O)(=O)CC1CN(c2nc(OCC34CCCN3CCC4)nc3c(F)c(-c4cccc5cccc(F)c45)ncc23)CCO1 (stereo not shown)
II = O=C1NCC(CNc2nc(OCC34CCCN3CCC4)nc3c(F)c(-c4cccc5cccc(F)c45)ncc23)O1 (stereo not shown)
IN: Of I and II , whose reported pIC50 is numerically smaller? Reply with the label of the item you choose.
OUT: II

====

Target: KRas G12S (Homo sapiens, UniProt P01116, G12S);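 note: TR-FRET displacement binding to KRas, read after one hour incubation at room temperature, IC50 from four-parameter fit of percent of control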
Sequence (P01116 1-169 isoform P01116-2 G12S): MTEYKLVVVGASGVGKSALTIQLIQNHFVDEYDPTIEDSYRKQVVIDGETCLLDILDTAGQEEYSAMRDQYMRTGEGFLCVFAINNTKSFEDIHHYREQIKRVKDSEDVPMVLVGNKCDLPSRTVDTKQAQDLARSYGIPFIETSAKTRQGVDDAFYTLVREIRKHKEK
Assay: biochemical
measurement-name: IC50 (µM)

Consider the following illustrative entries.
INSERT INTO results (compound, measurement_name, quantity_unit, test_value) VALUES
  ('O=c1ccc(CNc2nc(OCC34CCCN3CCC4)nc3c(F)c(-c4cccc5cccc(F)c45)ncc23)c[nH]1', 'IC50', 'µM', 3.23),
  ('Fc1c(-c2cccc3cccc(F)c23)ncc2c(Nc3cnc4cnccn34)nc(OCC34CCCN3CCC4)nc12', 'IC50', 'µM', 53.5),
  ('C[C@H]1C[C@H]1c1c(Cl)cc2[nH]ncc2c1-c1ncc2c(N3CCC[C@@](C)(O)C3)nc(OC[C@@]34CCCN3C[C@H](F)C4)nc2c1F (racemic)', 'IC50', 'µM', 0.007),
  ('Nc1ncccc1CNc1nc(OCC23CCCN2CCC3)nc2c(F)c(-c3cccc4cccc(F)c34)ncc12', 'IC50', 'µM', 0.418),
  ('OCC1COCCN(c2nc(OCC34CCCN3CCC4)nc3c(F)c(-c4cccc5cccc(F)c45)ncc23)C1 (centres unmarked)', 'IC50', 'µM', 0.703),
  ('O=c1[nH][nH]cc1CNc1nc(OCC23CCCN2CCC3)nc2c(F)c(-c3cccc4cccc(F)c34)ncc12', 'IC50', 'µM', 19.7),
  ('Fc1c(-c2cccc3cccc(F)c23)ncc2c(NCc3nnc4ncccn34)nc(OCC34CCCN3CCC4)nc12', 'IC50', 'µM', 18.6),
  ('O=C(O)[C@H]1C[C@H](Nc2nc(OCC34CCCN3CCC4)nc3c(F)c(-c4cccc5cccc(F)c45)ncc23)C1', 'IC50', 'µM', 17.9);

A = Fc1c(-c2cccc3cccc(F)c23)ncc2c(N3CCCCC3)nc(OCC34CCCN3CCC4)nc12
B = O=C1NCC12CCCN(c1nc(OCC34CCCN3CCC4)nc3c(F)c(-c4cccc5cccc(F)c45)ncc13)C2 (centres unmarked)
C = C#Cc1c(F)ccc2cc(O)cc(-c3ncc4c(N5CCCC(O)C5)nc(OCCN(C)C)nc4c3F)c12 (centres unmarked)
D = CCc1cccc2cc3[nH]ncc3c(-c3ncc4c(N5CCC[C@@](C)(O)C5)nc(OC[C@@]56CCCN5C[C@H](F)C6)nc4c3F)c12
E = CN(C)C(=O)c1cc2n(n1)CCCN(c1nc(OCC34CCCN3CCC4)nc3c(F)c(-c4cccc5cccc(F)c45)ncc13)C2
IN: # rank by IC50, ascending (min first) Provide your answer as the labels ordered per the instruction.
OUT: D, C, E, B, A

====

Molecular target: KRas G12R (Homo sapiens, UniProt P01116, G12R)
Sequence (P01116 1-169 isoform P01116-2 G12R): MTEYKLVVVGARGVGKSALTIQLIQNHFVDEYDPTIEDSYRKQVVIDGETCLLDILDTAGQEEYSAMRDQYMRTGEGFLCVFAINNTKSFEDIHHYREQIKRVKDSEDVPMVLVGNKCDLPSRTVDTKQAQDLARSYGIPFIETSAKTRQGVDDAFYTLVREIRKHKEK
Experiment: biochemical
measurement-name: IC50 (nM)

INSERT INTO results (compound, measurement_name, quantity_unit, test_value) VALUES
  ('O=CNC1CCCN(c2nc(OCC34CCCN3CCC4)nc3c(F)c(-c4cccc5cccc(F)c45)ncc23)C1 (stereo not shown) [Example 242]', 'IC50', 'nM', 13000);

1 = CCc1c(F)ccc2cc(O)cc(-c3ncc4c(NC[C@@H]5COC[C@@H]5O)nc(OC[C@@]56CCCN5C[C@H](F)C6)nc4c3F)c12 (single isomer, unassigned) [Example 493]
2 = CCc1c(F)ccc2cc(O)cc(-c3ncc4c(OCCCc5cccnc5)nc(OC[C@@]56CCCN5C[C@H](F)C6)nc4c3F)c12 [Example 298]
IN: Of 1 and 2 , whose reported IC50 is numerically smaller? Reply with the label of the item you choose.
OUT: 1

I = O=C1NC(=O)C2CN(c3nc(OCC45CCCN4CCC5)nc4c(F)c(-c5cccc6cccc(F)c56)ncc34)CC12 (stereo not shown) [Example 228]
II = CC1(O)CCCN(c2nc(OCC34CCCN3CCC4)nc3c(F)c(-c4cccc5cccc(Cl)c45)ncc23)C1 (stereo not shown) [Example 1]
III = Cn1cc(CNc2nc(OCC34CCCN3CCC4)nc3c(F)c(-c4cccc5cccc(F)c45)ncc23)ccc1=O [Example 88]
IV = OCC1CCCN(c2nc(OCC34CCCN3CCC4)nc3c(F)c(-c4cccc5cccc(F)c45)ncc23)C1 (stereo not shown) [Example 113]
IN: # rank by IC50, ascending (min first) Provide your answer as the labels ordered per the instruction.
OUT: I, II, III, IV
(I: 224 nM, II: 866 nM, III: 4370 nM, IV: 16000 nM)

====

Target: KRas G12R (Homo sapiens, UniProt P01116, G12R);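 note: TR-FRET displacement assay of compound binding to KRas, read after one hour at room temperature, potency from a four-parameter fit of percent-of-control values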
Experiment: biochemical
pIC50: −log10 of the molar value.
measurement-name: pIC50

Consider the following illustrative entries.
INSERT INTO results (compound, test_value) VALUES
  ('CCc1c(F)ccc2cc(O)cc(-c3ncc4c(N5CCOC[C@@]6(C5)CC6(F)F)nc(OC[C@@]56CCCN5C[C@H](F)C6)nc4c3F)c12 [Example 498]', 8.52),
  ('CCc1c(F)ccc2cc(O)cc(-c3ncc4c(N5CCCC6(C5)C[S+]([O-])C6)nc(OC[C@@]56CCCN5C[C@H](F)C6)nc4c3F)c12 (some centres unmarked) [Example 484]', 7.32),
  ('Nc1ncccc1CNc1nc(OCC23CCCN2CCC3)nc2c(F)c(-c3cccc4cccc(F)c34)ncc12 [Example 70]', 6.67),
  ('CN(C)CC1(COc2nc(N3CCCC(C)(O)C3)c3cnc(-c4cccc5cccc(F)c45)c(F)c3n2)CC1 (centres unmarked) [Example 256]', 5.09),
  ('O=S1(=O)CC(Nc2nc(OCC34CCCN3CCC4)nc3c(F)c(-c4cccc5cccc(F)c45)ncc23)C1 [Example 95]', 5.51),
  ('Cc1cc(N)nc(-c2ncc3c(N4CCC[C@@](C)(O)C4)nc(OC[C@@H]4CCCN4C)nc3c2F)c1C(F)(F)F [Example 435]', 5.16),
  ('CCc1c(F)ccc2cc(O)cc(-c3ncc4c(N5C[C@H](O)CC[C@H](O)C5)nc(OC[C@@]56CCCN5C[C@H](F)C6)nc4c3F)c12 [Example 491]', 8.22),
  ('Fc1c(-c2cccc3cccc(F)c23)ncc2c(NCCc3c[nH]c4ncccc34)nc(OCC34CCCN3CCC4)nc12 [Example 212]', 6.06);

P = Nc1n[nH]c(CCNc2nc(OCC34CCCN3CCC4)nc3c(F)c(-c4cccc5cccc(F)c45)ncc23)n1 [Example 238]
Q = Fc1c(-c2cccc3cccc(F)c23)ncc2c(N3CCCC4CCCC43)nc(OCC34CCCN3CCC4)nc12 (centres unmarked) [Example 32]
IN: P or Q : whose pIC50 is greater? Reply with the label of the item you choose.
OUT: P
(P: 5.04, Q: 4.06)

A = NS(=O)(=O)CC1CCCN(c2nc(OCC34CCCN3CCC4)nc3c(F)c(-c4cccc5cccc(C(F)F)c45)ncc23)C1 (centres unmarked) [Example 463]
B = O=C(O)[C@H]1C[C@H](Nc2nc(OCC34CCCN3CCC4)nc3c(F)c(-c4cccc5cccc(F)c45)ncc23)C1 [Example 91]
IN: Of A and B , whose reported pIC50 is numerically smaller? Reply with the label of the item you choose.
OUT: B
(B: 5.66, A: 5.87)

The reported measurements were obtained from patent US12398154B2.
